PROTOCOL: gradient 5% acetonitrile 3 min, to 50% in 2 min, to 85% in 15 min, held 3 min, 100 µL/min
ASSAY_CONTEXT: column: Zorbax Extend-C18 2.1 x 50 mm; eluents: water / acetonitrile, 0.1% formic acid
MEASUREMENT_LABEL: RP-LC retention time

As a guide, the following entries are already answered.
- COC(=O)c1ccc(C(=O)N(Cc2ccsc2)Cc2ccco2)cc1: 832 s
- O=C(NCc1ccc(F)cc1Cl)C1CCN(c2cc(Oc3ccccc3)ncn2)CC1: 863 s
- COCc1c(C(=O)O)nnn1-c1ccc2c(c1)OCO2: 648 s
- CC1CS(=O)(=O)N(c2ccc(C(=O)N3CCN(c4ccccn4)CC3)c(Cl)c2)C1=O (stereo not given): 576 s
- O=C(Cn1nc2ccc(SCc3ccc(Cl)cc3)nn2c1=O)NC1CCCCC1: 870 s
- COc1ccc(Cl)cc1NC(=O)N1CCCC1c1nc(-c2ccc(F)cc2F)no1 (stereo not given): 1120 s
- Cc1occc1C(=O)NC1CCc2nn(C)c(=O)n2CC1 (stereo not given): 604 s
- Cc1noc(-c2cccn2Cc2cc(F)cc(F)c2)n1: 1040 s
- CNC(=O)[C@@H]1CN(S(=O)(=O)c2ccc(Cl)s2)C[C@H]1c1nc(C)no1: 758 s
- COCC(=O)Nc1cnc(-c2ccc(Cl)cc2)nc1: 857 s

stdin: Please report the recorded RP-LC retention time for COc1ccc(S(=O)(=O)N2CCN(c3cc(C)nc(NC4CCCCC4)n3)CC2)cc1C .
stdout: 848 s

stdin: Follow-up entry: O=C(c1cccs1)N1CCN(c2ccc(-c3noc(C4CCC4)n3)cc2)CC1
stdout: 1070 s

stdin: Follow-up entry: Cc1nn2c(CNC(=O)Cc3cccc(C(F)(F)F)c3)c(C)nc2s1
stdout: 679 s

stdin: Follow-up entry: CCN(c1nc(N)c(C(=O)N=C(N)N)nc1Cl)C(C)C
stdout: 779 s

stdin: Follow-up entry: CCN(CC)S(=O)(=O)c1ccc2c(c1)N(CC(=O)NCCc1cnc[nH]1)C(=O)C1CCCCN21 (stereo not given)
stdout: 655 s

stdin: Follow-up entry: COc1ccc(-c2nc(NCCCN3CCCCC3C)c3ccccc3n2)cc1 (stereo not given)
stdout: 579 s

stdin: Follow-up entry: CC(C)n1c(-c2cccc(C(=O)NCc3cccs3)c2)nc2cccnc21
stdout: 787 s

stdin: Follow-up entry: CCOCCCNC(=O)c1cc2c(n(-c3ccc(C(C)C)cc3)c1=O)CCCC2=O
stdout: 952 s

stdin: Follow-up entry: COc1ncc(C(=O)NCc2ccccc2F)cn1
stdout: 680 s

stdin: Follow-up entry: Cc1nc(-c2csc(S(=O)(=O)N3CCC(C(=O)NC4CCCC4)CC3)c2)no1
stdout: 826 s
